# tested-target: pre-existing anti-drug antibodies (ADA) present in human sera
# assay-info: pre-existing ADA ELISA, scFv coated, human sera unspiked vs spiked
For each record, write down the corresponding Mean No of serum samples >30% inhibition (30% CCP) with SCP (serum samples).
Give bare numbers.

Reference set (2 entries):
{"binder": "PRO2934 (scFv 37-20-B03-sc09.1_(L144K, S148L)) (scFv, PRO2230 variant; VH substitutions, AHo numbering; also called PRO2230 L144K-S148L) scFv: DIQMTQSPASLSASVGDRVTITCQASQSIGTYLAWYQQKPGKPPKLLIYRAFILASGVPSRFSGSGSGTDFTLTISSLQPEDFATYYCQSNFYSDSTTIGPNAFGTGTKVTVLGGGGGSGGGGSGGGGSGGGGSEVQLVESGGGLVQPGGSLRLSCAASGFSFNSDYWIYWVRQAPGKGLEWIASIYGGSSGNTQYASWAQGRFTISRDNSKNTVYLQMNSLRAEDTAVYFCARGYVDYGGATDLWGQGTKVTVLS", "data-value": 2}
{"binder": "PRO2991 (scFv 54-21-H03-sc01_(T101A)) (scFv, PRO1922 variant; VH substitution, AHo numbering; also called PRO1922 T101A) scFv: DIQMTQSPSSLSASVGDRVTITCQASESIYSSLAWYQQKPGKAPKLLIYLASTLASGVPSRFSGSGSGTDFTLTISSLQPEDFATYYCQSTDYTTSTHRNSFGTGTKVTVLGGGGGSGGGGSGGGGSGGGGSEVQLVESGGGLVQPGGSLRLSCAASGFSFSTTYYMCWVRQAPGKGLEWIGCTNTASSVRTYYATWAKGRFTISRDNSKNTVYLQMNSLRAEDAAVYYCARDMGFADYALNLWGQGTLVTVSS", "data-value": 0}

Consider the record given below.
stdin: Please report the measured Mean No of serum samples >30% inhibition (30% CCP) with SCP (serum samples) for PRO3310 (scFv 37-20-B03-sc09.1_(L12R, T101R, L144A, T146Q)) (scFv, PRO2230 variant; VH substitutions, AHo numbering; also called PRO2230 L12R-T101R-L144A-T146Q) scFv: DIQMTQSPASLSASVGDRVTITCQASQSIGTYLAWYQQKPGKPPKLLIYRAFILASGVPSRFSGSGSGTDFTLTISSLQPEDFATYYCQSNFYSDSTTIGPNAFGTGTKVTVLGGGGGSGGGGSGGGGSGGGGSEVQLVESGGGRVQPGGSLRLSCAASGFSFNSDYWIYWVRQAPGKGLEWIASIYGGSSGNTQYASWAQGRFTISRDNSKNTVYLQMNSLRAEDRAVYFCARGYVDYGGATDLWGQGTAVQVSS
stdout: 3

Source: patent US20250382363A1
